- target or system: Rat recombinant α2,3(O)ST (Rattus norvegicus, UniProt Q11205)
- Construct: purchased Calbiochem
- Sequence (Q11205 whole entry): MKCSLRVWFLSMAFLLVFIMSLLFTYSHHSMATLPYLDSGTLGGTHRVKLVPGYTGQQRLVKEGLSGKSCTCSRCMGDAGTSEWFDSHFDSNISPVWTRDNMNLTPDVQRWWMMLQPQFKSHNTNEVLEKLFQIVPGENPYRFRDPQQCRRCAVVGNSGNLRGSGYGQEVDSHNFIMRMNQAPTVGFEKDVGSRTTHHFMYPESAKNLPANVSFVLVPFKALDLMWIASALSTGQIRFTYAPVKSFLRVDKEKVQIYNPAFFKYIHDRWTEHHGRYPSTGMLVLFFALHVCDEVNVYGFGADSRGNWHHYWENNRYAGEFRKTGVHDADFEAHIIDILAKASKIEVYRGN
- run description: Sialyltransferase assay with cloned α2,3(O)ST
- Assay type: biochemical
- condition summary: CMP-NeuAc 150 μM; Lineweaver-Burke plot
readout: Km (µM)
Express your answer in µM, writing the number without its unit.

CC(=O)N[C@H]1[C@H](OC[C@H]2O[C@H](OCc3ccccc3)[C@H](NC(C)=O)[C@@H](O[C@@H]3O[C@H](C)[C@H](O)[C@H](O)[C@H]3O)[C@H]2O)O[C@H](CO)[C@@H](O)[C@@H]1O ... 280
CC(=O)N[C@H]1[C@@H](OCc2ccccc2)O[C@H](CO)[C@H](O)[C@@H]1O[C@@H]1O[C@H](C)[C@H](O)[C@H](O)[C@H]1O ... 210
CO[C@H]1O[C@H](CO)[C@H](O)[C@H](O[C@@H]2O[C@H](CO)[C@H](O)[C@H](O[C@@H]3O[C@H](CO)[C@H](O)[C@H](O)[C@H]3O)[C@H]2NC(C)=O)[C@H]1O ... 120
CO[C@H]1O[C@H](CO)[C@H](O)[C@H](O[C@@H]2O[C@H](CO)[C@H](O)[C@H](O[C@@H]3O[C@H](C)[C@H](O)[C@H](O)[C@H]3O)[C@H]2NC(C)=O)[C@H]1O ... 560
CC(=O)N[C@H]1[C@H](OC[C@H]2O[C@H](OCc3ccccc3)[C@H](NC(C)=O)[C@@H](O[C@@H]3O[C@H](CO)[C@H](O)[C@H](O)[C@H]3O[C@@H]3O[C@@H](C)[C@@H](O)[C@@H](O)[C@@H]3O)[C@H]2O)O[C@H](CO)[C@@H](O)[C@@H]1O ... 1820
CC(=O)N[C@H]1[C@@H](OCc2ccccc2)O[C@H](CO)[C@H](O)[C@@H]1O[C@@H]1O[C@H](CO)[C@H](F)[C@H](O)[C@H]1O ... 250
CO[C@@H]1[C@H](O)[C@@H](O)[C@H](O[C@H]2[C@@H](O)[C@@H](CO)O[C@H](OCc3ccccc3)[C@@H]2NC(C)=O)O[C@@H]1CO ... 130
COC1OC(CO)C(O)C(OC2OC(CO)C(O)C(OC3OC(CO)C(O)C(OS(=O)(=O)O)C3O)C2NC(C)=O)C1O (stereo not drawn) ... 1250

Request: Given the molecule CO[C@H]1O[C@H](CO)[C@H](O)[C@H](O[C@@H]2O[C@H](CO)[C@H](O)[C@H](O[C@@H]3O[C@H](C)[C@H](O)[C@H](OS(=O)(=O)O)[C@H]3O)[C@H]2NC(C)=O)[C@H]1O , what is its reported Km?
Result: 2000

* * *

- target or system: Rat recombinant α2,3(N)ST (Rattus norvegicus, UniProt Q02734)
- Construct: purchased Calbiochem
- Sequence (Q02734 29-374 limits assumed): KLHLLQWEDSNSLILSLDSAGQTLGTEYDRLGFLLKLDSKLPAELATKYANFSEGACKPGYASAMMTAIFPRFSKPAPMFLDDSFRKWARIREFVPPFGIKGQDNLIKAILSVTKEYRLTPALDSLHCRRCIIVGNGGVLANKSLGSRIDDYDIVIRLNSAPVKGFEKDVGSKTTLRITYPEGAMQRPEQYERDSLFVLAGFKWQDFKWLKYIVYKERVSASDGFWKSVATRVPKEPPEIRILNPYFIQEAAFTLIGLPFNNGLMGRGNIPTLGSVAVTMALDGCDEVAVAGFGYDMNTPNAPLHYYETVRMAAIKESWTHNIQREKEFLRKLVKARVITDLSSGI
- run description: Sialyltransferase assay with cloned α2,3(N)ST
- Format: biochemical
- condition summary: Table I; acceptor 7.5 mM; 100% = 29520 CPM (Galβ1,4GlcNAcβ-O—Al)
Cut-off 60% on Sialyltransferase activity (%) Cloned α2,3(N)ST: below means Satisfied, at or above means Not satisfied.

Use these answered entries as a reference point.
CO[C@H]1[C@@H](O)[C@@H](CO)O[C@@H](O[C@H]2[C@H](O)[C@@H](NC(C)=O)[C@H](OC[C@H]3O[C@H](OCc4ccccc4)[C@H](NC(C)=O)[C@@H](O[C@@H]4O[C@H](CO)[C@H](O)[C@H](O)[C@H]4O)[C@H]3O)O[C@@H]2CO)[C@@H]1O ... Satisfied
CO[C@H]1O[C@H](CO[C@@H]2O[C@H](COS(=O)(=O)O)[C@@H](O[C@@H]3O[C@H](CO)[C@H](O)[C@H](O)[C@H]3O)[C@H](O[C@@H]3O[C@@H](C)[C@@H](O)[C@@H](O)[C@@H]3O)[C@H]2NC(C)=O)[C@H](O)[C@H](O[C@@H]2O[C@H](CO)[C@H](O)[C@H](O[C@]3(C(=O)O)C[C@H](O)[C@@H](NC(C)=O)[C@H]([C@H](O)[C@H](O)CO)O3)[C@H]2O)[C@H]1NC(C)=O ... Satisfied
CO[C@H]1[C@@H](O)[C@@H](CO)O[C@@H](O[C@H]2[C@@H](O)[C@@H](CO[C@@H]3O[C@H](CO)[C@@H](O[C@@H]4O[C@H](CO)[C@H](O)[C@H](O)[C@H]4O)[C@H](O)[C@H]3NC(C)=O)O[C@H](OCc3ccccc3)[C@@H]2NC(C)=O)[C@@H]1O ... Not satisfied

Request: Is 60% strictly greater than the compound's reported Sialyltransferase activity (%) Cloned α2,3(N)ST? compound: CC(=O)N[C@H]1[C@H](OC[C@H]2O[C@H](OCc3ccccc3)[C@H](NC(C)=O)[C@@H](O[C@@H]3O[C@H](CO)[C@H](O)[C@H](O)[C@H]3O)[C@H]2O)O[C@H](CO)[C@@H](O[C@@H]2O[C@H](CO)[C@H](O)[C@H](O)[C@H]2O)[C@@H]1O
Result: Not satisfied

Request: Is 60% strictly greater than the compound's reported Sialyltransferase activity (%) Cloned α2,3(N)ST? compound: CO[C@H]1O[C@H](CO)[C@H](O)[C@H](O[C@@H]2O[C@H](CO)[C@H](O)[C@H](O[C@@H]3O[C@H](C)[C@H](O)[C@H](O)[C@H]3O)[C@H]2NC(C)=O)[C@H]1O
Result: Satisfied

Request: Is 60% strictly greater than the compound's reported Sialyltransferase activity (%) Cloned α2,3(N)ST? compound: CO[C@H]1[C@@H](O)[C@@H](CO)O[C@@H](O[C@H]2[C@H](O)[C@@H](NC(C)=O)C(O)O[C@@H]2CO)[C@@H]1O (stereo partly shown)
Result: Satisfied

Request: Is 60% strictly greater than the compound's reported Sialyltransferase activity (%) Cloned α2,3(N)ST? compound: CO[C@H]1O[C@H](CO[C@@H]2O[C@H](CO)[C@@H](O[C@@H]3O[C@H](CO)[C@H](O)[C@H](O)[C@H]3O)[C@H](O[C@@H]3O[C@@H](C)[C@@H](O)[C@@H](O)[C@@H]3O)[C@H]2NC(C)=O)[C@H](O)[C@H](O[C@@H]2O[C@H](CO)[C@H](O)[C@H](O)[C@H]2O)[C@H]1NC(C)=O
Result: Satisfied

Request: Is 60% strictly greater than the compound's reported Sialyltransferase activity (%) Cloned α2,3(N)ST? compound: CO[C@H]1[C@H](O[C@H]2[C@H](O)[C@@H](CO)OC(O)[C@@H]2NC(C)=O)O[C@H](CO)[C@H](O)[C@@H]1O (stereo partly shown)
Result: Not satisfied

Request: Is 60% strictly greater than the compound's reported Sialyltransferase activity (%) Cloned α2,3(N)ST? compound: C=CCO[C@H]1O[C@H](CO)[C@H](O)[C@H](O[C@@H]2O[C@H](CO)[C@H](O)[C@H](O)[C@H]2O)[C@H]1NC(C)=O
Result: Satisfied

Request: Is 60% strictly greater than the compound's reported Sialyltransferase activity (%) Cloned α2,3(N)ST? compound: CC(=O)N[C@H]1[C@H](OC[C@H]2O[C@H](OCc3ccccc3)[C@H](NC(C)=O)[C@@H](O[C@@H]3O[C@H](CO)[C@H](O)[C@H](O[C@@]4(C(=O)O)C[C@H](O)[C@@H](NC(C)=O)[C@H]([C@H](O)[C@H](O)CO)O4)[C@H]3O)[C@H]2O)O[C@H](CO)[C@@H](O[C@@H]2O[C@H](CO)[C@H](O)[C@H](O)[C@H]2O)[C@@H]1O[C@@H]1O[C@@H](C)[C@@H](O)[C@@H](O)[C@@H]1O
Result: Satisfied

Request: Is 60% strictly greater than the compound's reported Sialyltransferase activity (%) Cloned α2,3(N)ST? compound: C=CCOC1OC(CO)C(O)C(OC2OC(CO)C(O)C(O)C2O)C1NC(C)=O (stereo not shown)
Result: Not satisfied
